Sequence of the target: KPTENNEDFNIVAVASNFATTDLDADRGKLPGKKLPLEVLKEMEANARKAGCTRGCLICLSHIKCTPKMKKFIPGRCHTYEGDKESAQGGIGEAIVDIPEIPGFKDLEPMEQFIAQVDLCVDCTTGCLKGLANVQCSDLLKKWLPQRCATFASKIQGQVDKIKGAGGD
reported-property: IC50

get_value(item= `O=c1n(Cc2ccc(O)cc2)nc2c(Cc3ccccc3)nc(-c3ccc(O)cc3)cn12` , readout=IC50) returns 10 to 100 µM
